Origin of values: patent US11434270B2

system: cells; test: Stimulation of cell proliferation; assay type: cell-based; details: summary table
value_type: Stimulation of cell proliferation

1. NQLVVPSEGL [P13-2]; no
2. RDNQLVVPSE [P12-10]; no
3. QLVVPSEGLY [P13-3]; no
4. DNQLVVPSEG [P13-1]; no
